Consider the following compounds and their measured solubility kinetic readings.
- test_context: buffer; pH 7.4; 200.0 µM

Worked cases, answers included:
CCOc1cc(N2CCOCC2)c(OCC)cc1NC(=O)COC(=O)c1ccc(Cl)nc1 :: 5.2 µg/mL
C=CCNC(=O)c1cc2cccc(OC)c2oc1=O :: > 38.9 µg/mL
O=S(=O)(c1ccc(S(=O)(=O)N2CCCC2)cc1)N1CCCCC1 :: < 0.4 µg/mL
CCn1ccc(-c2ccccc2)c(C#N)c1=O :: > 33.6 µg/mL
c1ccc(CCNc2ncnc3sccc23)nc1 :: > 38.4 µg/mL

Query `COc1cccc(C2(C#N)CCN(C)CC2)c1` yields solubility kinetic of > 34.5 µg/mL

Query `Cc1ccc(N=C(N)N=C(N)N)cc1` yields solubility kinetic of > 28.7 µg/mL

Query `CN(C)c1cccc(C(=O)OCC(=O)NC(=O)NCc2ccccc2)c1` yields solubility kinetic of 2.6 µg/mL
